Provide the recorded Novel lipid/MC3 expression ratio, 6 hr. time point, s.c. Luc 0.5 mpk for the entries that follow.
# System: luciferase mRNA
# protocol-summary: Luciferase expression after subcutaneous administration to mice
# Assay type: in vivo, female CD-1 mice
# study-conditions: 0.5 mpk, relative to MC3
Numbers only.

Use the examples below as a reference point.
CCCCCCCCC(CCCCCCCC)OC(=O)CCCCCCCN(CCO)CCCCCC(=O)OC(CCCCCCCC)C1CC1 (centres unmarked) [Compound 128]: 0.47
CCCCCCCCCOC(=O)CCCCCCCN(CCCCCCCC(=O)OC(CCCCCCCC)CCCCCCCC)CCCNS(C)(=O)=O [Compound 109]: 0.49
CCCC/C=C\CCC(CC/C=C\CCCC)OC(=O)CCCCCCCN(CCO)CCCCCC(=O)OCCCCCCCCCCC [Compound 61]: 0.70

Each compound below has a reported value. Please supply its Novel lipid/MC3 expression ratio, 6 hr. time point, s.c. Luc 0.5 mpk.
1. CCCCCCCCCOC(=O)CCCCCCCN(CCCCCCCC(=O)OC(CCCCCCCC)CCCCCCCC)CCCNC(=S)N(C)C [Compound 111]
2. CCCCCCCCCOC(=O)CCCCCCCN(CCCO)CCCCCCCC(=O)OC(CCCCCCCC)CCCCCCCC [Compound 19]
3. CCCCCCCCCOC(=O)CCCCCCCN(CCCCCCCC(=O)OC(CCCCCCCC)CCCCCCCC)CCCNC(C)=O [Compound 108]
4. CCCCCCCCCOC(=O)CCCCCCCN(CCCCCCCC(=O)OC(CCCCCCCC)CCCCCCCC)CC(O)CO (centres unmarked) [Compound 69]
5. CCCCCCCCCOC(=O)CCCCCCCN(CCCCCCCC(=O)OC(CCCCCCCC)CCCCCCCC)CCCN/C(=N/C#N)N(C)C [Compound 168]
6. CCCCCCCCCN(CCCO)CCCCCCCC(=O)OC(CCCCCCCC)CCCCCCCC [Compound 7]

A:
1. 1.16
2. 2.13
3. 0.22
4. 0.14
5. 0.58
6. 2.29

Provide Novel lipid/MC3 expression ratio, 6 hr. time point, s.c. Luc 0.5 mpk for all items below, preserving their order.
1. CCCCCCCCCOC(=O)CCCCCCCN(CCO)CCCCCCCCCC(=O)OC(CCCCCCCC)CCCCCCCC [Compound 23]
2. CCCC/C=C\CCC(CC/C=C\CCCC)OC(=O)CCCCCCCN(CCO)CCCCCCCC(=O)OCCCCCCCCC [Compound 60]

A:
1. 1.02
2. 1.72

----------
Hi there, I'd appreciate the recorded pKa for every entry that follows.
# protocol-summary: Apparent (surface) pKa of the LNP formulation (TNS assay)
# Type: physicochemical
# study-conditions: Table 1A

Look over these answered cases.
CCCCCCCCCCCOC(=O)CCCCCN(CCO)CCCCCC(=O)OCCCCCCCCCCC [Compound 141]: 7.47
CCCCCCCCC(CCCCCCCC)OC(=O)CCCCCCCN(CCO)CCCCCC(=O)N(C)CCCCCCCC [Compound 146]: 7.78
CCCCCCCCCOC(=O)CCCCCCCN(CCCCCCCC(=O)OC(CCCCCCCC)CCCCCCCC)CCCNc1c(N(C)C)c(=O)c1=O [Compound 169]: 6.77.
CCCCCCCCCCCOC(=O)CCCCCN(CCO)CCCCCCCC(=O)N(CCCCCCCC)CCCCCCCC [Compound 129]: 7.3
CCCCCCCCCOC(=O)CCCCCCCN(CCO)CCCCCCCC(=O)OC(C)CCCCCCCC (centres unmarked) [Compound 36]: 7.38
CCCCCCCCCN(CCO)CCCCCCCC(=O)OC(CCCCCCCC)CCCCCCCC [Compound 3]: 6.72
CCCCCCCCCOC(=O)CCCCCCCN(CCCCCCCC(=O)OC(CCCCCCCC)CCCCCCCC)CCOCCO [Compound 154]: 6.827

Q: Data request, read-out pKa, for CCCCCCCCC(CCCCCCCC)OC(=O)CCCCCCCN(C)CCCCCCCCCCCC(=O)OCCCCC [Compound 150]
A: 6.101
